The measurements presented in this section are drawn from the RepoRT retention time repository.

methodSummary: RP, Waters ACQUITY UPLC HSS T3, 150 × 2.1 mm, 1.8 µm, 45 °C, 0.6 mL/min, estimated dead time 0.55 min; A: water + 0.1% formic acid, pH 3; B: acetonitrile + 0.1% formic acid, pH 3; gradient (min/%B) 0/1 0.1/1 10/55 10.15/65 10.30/75 10.45/85 10.60/95 10.70/100 11/100 11.55/100 11.65/1 11.70/1 11.80/1 11.90/1 12/1 12.10/1 12.15/1 12.65/1
setupConditions: stereoisomer not certain
measureName: LC retention time
Include the unit right after the number.

Value lookup for LC retention time; key = Cn1c(=O)c2[nH]cnc2n(C)c1=O
2.76 min

###

methodSummary: RP, Waters ACQUITY UPLC HSS T3, 150 × 2.1 mm, 1.8 µm, 45 °C, 0.6 mL/min, estimated dead time 0.55 min; A: water + 0.1% formic acid, pH 3; B: acetonitrile + 0.1% formic acid, pH 3; gradient (min/%B) 0/1 0.1/1 10/55 10.15/65 10.30/75 10.45/85 10.60/95 10.70/100 11/100 11.55/100 11.65/1 11.70/1 11.80/1 11.90/1 12/1 12.10/1 12.15/1 12.65/1
setupConditions: stereoisomer not certain
Counter-ions that a name gives are not always drawn.
I'd appreciate it if you could label each record using LC retention time and these ranges: bin 1 (below 2 min), bin 2 (2 min to below 3 min), bin 3 (3 min or more)

# count of solved cases: 8
molecule: CCC(C)C(=O)C(=O)O (stereo unspecified)
cat: bin 3
--
molecule: O=C(O)C=Cc1ccc(O)cc1 [4-Hydroxycinnamic acid]
cat: bin 3
--
molecule: CCC(C)(O)C(=O)O (stereo unspecified) [2-Hydroxy-2-methylbutyric acid]
cat: bin 2
--
molecule: O=C(O)c1ccc(CO)o1
cat: bin 2
--
molecule: CC(C)(O)CC(=O)O [3-Hydroxyisovaleric acid]
cat: bin 2
--
molecule: CC(C)(O)C(=O)O [2-Hydroxyisobutyric acid]
cat: bin 1
--
molecule: O=c1[nH]c(=O)c2[nH]cnc2[nH]1
cat: bin 1
--
molecule: CC(=O)NC(CCC(=O)O)C(=O)O (stereo unspecified)
cat: bin 1

Each molecule maps to one class by LC retention time. Which class for CC(=O)Nc1ccc(OS(=O)(=O)O)cc1 [Acetaminophen sulfate] ?
bin 2

For O=C(O)c1cc(O)c(O)c(O)c1 , which LC retention time bin applies?
bin 1

Category of O=C(O)c1cc(=O)[nH]c(=O)[nH]1 , please.
bin 1

// bin(item) where item = CC(CCC(=O)NCC(=O)O)C1CCC2C3C(O)CC4CC(O)CCC4(C)C3CC(O)C12C (stereo unspecified)
bin 3

Hi there! Could you help me figure out the category for NCCc1ccc(OS(=O)(=O)O)c(O)c1 [Dopamine 4-O-sulfate] please?
bin 1

Please indicate the class for CC(C)Cc1ccc(C(C)C(=O)OC2OC(C(=O)O)C(O)C(O)C2O)cc1 (stereo unspecified) [Ibuprofen acyl glucuronide] based on its LC retention time.
bin 3

Band for the recorded LC retention time of CC(C)C(=O)NCC(=O)O ?
bin 2

###

methodSummary: RP, Waters ACQUITY UPLC HSS T3, 150 × 2.1 mm, 1.8 µm, 45 °C, 0.6 mL/min, estimated dead time 0.55 min; A: water + 0.1% formic acid, pH 3; B: acetonitrile + 0.1% formic acid, pH 3; gradient (min/%B) 0/1 0.1/1 10/55 10.15/65 10.30/75 10.45/85 10.60/95 10.70/100 11/100 11.55/100 11.65/1 11.70/1 11.80/1 11.90/1 12/1 12.10/1 12.15/1 12.65/1
setupConditions: stereoisomer not certain
measureName: LC retention time (min)
Quick note: give the figure in min, leave out the unit.

compound: O=C(O)CCCCCCCC(=O)O
measureName: LC retention time
observed: 5.48
--
compound: Cn1c(=O)[nH]c(=O)c2c1[nH]c(=O)n2C
measureName: LC retention time
observed: 1.94
--
compound: O=C(O)c1ccc(O)cc1 [4-Hydroxybenzoic acid]
measureName: LC retention time
observed: 3.16
--
compound: O=C(O)c1cc(O)ccc1O [2,5-Dihydroxybenzoic acid]
measureName: LC retention time
observed: 3.16
--
compound: CC(CCC(=O)O)C1CCC2C3C(=O)CC4CC(O)CCC4(C)C3CC(O)C12C (stereo not given)
measureName: LC retention time
observed: 8.65

Any idea what LC retention time was measured for O=C(O)CCCCC(=O)O ?
2.59

Recorded LC retention time for CC(=O)NC(Cc1ccc(O)cc1)C(=O)O (stereo not given) , please?
2.97
